Here the recorded IC50 is given for each entry.
Biological target: KAT-6A (Homo sapiens (Human))
Sequence (Q92794 other isoform, or with tags, fused parts or gaps): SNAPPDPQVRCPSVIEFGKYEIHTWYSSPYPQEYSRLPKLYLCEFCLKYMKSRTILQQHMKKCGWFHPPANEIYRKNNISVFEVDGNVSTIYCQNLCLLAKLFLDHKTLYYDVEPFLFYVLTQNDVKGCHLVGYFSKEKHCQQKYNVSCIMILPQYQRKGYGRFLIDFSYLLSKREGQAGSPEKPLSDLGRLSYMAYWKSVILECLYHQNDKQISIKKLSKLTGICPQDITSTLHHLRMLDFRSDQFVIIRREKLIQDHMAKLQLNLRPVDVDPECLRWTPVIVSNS
Assay: KAT-6A biochemical inhibition assay (SAMDI mass spectrometry)

A selection of reference data follows.
>  <MOLECULE>
CC1CCCC(CS(=O)(=O)NNC(=O)c2cc(-c3cn(C)cn3)cc(Cl)c2F)C1 (stereo not shown)

>  <ASSAYED SYSTEM>
KAT-6A (Homo sapiens (Human))

>  <IC50>
< 10 µM

$$$$
>  <MOLECULE>
CC(C)S(=O)(=O)N1CCC(CS(=O)(=O)NNC(=O)c2cc(-c3cn(C)cn3)cc(Cl)c2F)C1 (stereo not shown)

>  <ASSAYED SYSTEM>
KAT-6A (Homo sapiens (Human))

>  <IC50>
< 10 µM

$$$$
>  <MOLECULE>
CC1CCNCC1CS(=O)(=O)NNC(=O)c1cc(-c2cn(C)cn2)cc(Cl)c1F (stereo not shown)

>  <ASSAYED SYSTEM>
KAT-6A (Homo sapiens (Human))

>  <IC50>
10 to 50 µM

$$$$

API: value(readout= IC50, system= KAT-6A (Homo sapiens (Human)), query= CC(=O)N1[C@H]2CC[C@@H](CS(=O)(=O)NNC(=O)c3cc(-c4cn(C)cn4)cc(Cl)c3F)[C@@H]1CC2 )
< 10 µM

Checklist item: IC50 tested on KAT-6A (Homo sapiens (Human)), entry Cn1cnc(-c2cc(Cl)c(F)c(C(=O)NNS(=O)(=O)C[C@H]3CCOC3)c2)c1 , value?
< 10 µM

Request body: readout IC50, system KAT-6A (Homo sapiens (Human)), query CCNC(=O)N1CCC(CS(=O)(=O)NNC(=O)c2cc(-c3cn(C)cn3)cc(Cl)c2F)C1 (stereo not shown) [Compound I-88] . Return the value.
10 to 50 µM

# returns recorded IC50 (system: KAT-6A (Homo sapiens (Human))) for COCCn1cnc(-c2cc(C)c(F)c(C(=O)NNS(=O)(=O)CC3CCCN(C(=O)COC)C3)c2)c1 (stereo not shown)
50 to 100 µM

###

Target: KAT-5 (Homo sapiens (Human))
Sequence (Q92993 other isoform, or with tags, fused parts or gaps): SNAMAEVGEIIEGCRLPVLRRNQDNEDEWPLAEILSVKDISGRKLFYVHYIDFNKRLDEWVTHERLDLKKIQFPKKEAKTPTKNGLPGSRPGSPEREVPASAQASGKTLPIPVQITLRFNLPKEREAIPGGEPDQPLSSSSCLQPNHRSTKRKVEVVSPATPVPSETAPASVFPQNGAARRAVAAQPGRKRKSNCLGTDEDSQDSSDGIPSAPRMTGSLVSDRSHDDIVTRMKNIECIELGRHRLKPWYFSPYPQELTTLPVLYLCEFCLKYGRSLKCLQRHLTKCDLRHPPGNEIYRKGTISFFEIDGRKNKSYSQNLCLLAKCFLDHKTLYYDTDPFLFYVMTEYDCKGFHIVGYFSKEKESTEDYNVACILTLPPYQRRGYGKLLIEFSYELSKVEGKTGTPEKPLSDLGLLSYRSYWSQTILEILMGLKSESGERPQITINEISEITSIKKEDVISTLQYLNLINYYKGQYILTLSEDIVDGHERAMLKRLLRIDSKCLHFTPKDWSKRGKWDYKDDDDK
Experiment: KAT-5 biochemical inhibition assay (SAMDI mass spectrometry)
pIC50: −log10 of the molar value.
# Lookup of reported pIC50 keyed by entry

>  <MOLECULE>
Cn1cnc(-c2cc(Cl)c(F)c(C(=O)NNS(=O)(=O)c3ccc(OCc4ccccc4)nc3)c2)c1

>  <MEASURED PARAMETER>
pIC50

>  <RESULT VALUE>
> 5.00

$$$$
>  <MOLECULE>
Cn1cnc(-c2cc(Cl)c(F)c(C(=O)NNS(=O)(=O)CC3CCCC(NC(=O)Cc4cccnc4)C3)c2)c1 (stereo not drawn)

>  <MEASURED PARAMETER>
pIC50

>  <RESULT VALUE>
> 5.00

$$$$
>  <MOLECULE>
CCNC(=O)N[C@@H]1CCC[C@H](CS(=O)(=O)NNC(=O)c2cc(-c3cn(C)cn3)cc(Cl)c2F)C1

>  <MEASURED PARAMETER>
pIC50

>  <RESULT VALUE>
> 5.00

$$$$
>  <MOLECULE>
Cc1ncn(C)c1-c1cc(Cl)c(F)c(C(=O)NNS(=O)(=O)CC2CCCCC2)c1

>  <MEASURED PARAMETER>
pIC50

>  <RESULT VALUE>
< 4.00

$$$$
>  <MOLECULE>
CCn1cc(-c2cc(C)c(F)c(C(=O)NNS(=O)(=O)C3CCCCC3)c2)cn1

>  <MEASURED PARAMETER>
pIC50

>  <RESULT VALUE>
4.30 to 5.00

$$$$

# value lookup — system KAT-5 (Homo sapiens (Human)), readout pIC50, item COc1ccc(CN(C)C(=O)N[C@H]2C[C@@H](CS(=O)(=O)NNC(=O)c3cc(-c4cn(C)cn4)cc(Cl)c3F)C2)cc1
> 5.00

What is its pIC50 for KAT-5 (Homo sapiens (Human))? Entry: Cn1cnc(-c2cc(Cl)c(F)c(C(=O)NNS(=O)(=O)c3ccc(Cl)cc3)c2)c1
> 5.00

What value of pIC50 on KAT-5 (Homo sapiens (Human)) does Cn1cc(-c2cc(Cl)c(F)c(C(=O)NNS(=O)(=O)CC3CCCCC3)c2)nn1 have?
> 5.00

Record Cn1cnc(-c2cc(Cl)c(F)c(C(=O)NNS(=O)(=O)C[C@H]3C[C@@H](NC(N)=O)C3)c2)c1 : what is its pIC50 with KAT-5 (Homo sapiens (Human))?
> 5.00

# returns recorded pIC50 (system: KAT-5 (Homo sapiens (Human))) for Cn1cnc(-c2cc(Cl)c(F)c(C(=O)NNS(=O)(=O)C3CCC3)c2)c1
4.00 to 4.30

// map Cc1cc(-c2cn(C)cn2)cc(C(=O)NNS(=O)(=O)CC2CCOCC2)c1F to recorded pIC50 (system: KAT-5 (Homo sapiens (Human)))
> 5.00

I'm curious: which pIC50 was measured for Cn1c(Cl)nc(-c2cc(Cl)c(F)c(C(=O)NNS(=O)(=O)C3CCOCC3)c2)c1Cl tested on KAT-5 (Homo sapiens (Human))?
4.00 to 4.30

// fetch KAT-5 (Homo sapiens (Human)) pIC50 for Cn1cnc(-c2cc(Cl)c(F)c(C(=O)NNS(=O)(=O)CC3CCCC3)c2)c1
> 5.00

Look up pIC50 with KAT-5 (Homo sapiens (Human)) for this molecule: CC(=O)Nc1ccccc1S(=O)(=O)NNC(=O)c1cc(-c2cn(C)cn2)cc(Cl)c1F
4.30 to 5.00

Lab request: please report pIC50 under test system KAT-5 (Homo sapiens (Human)) for Cn1cnc(-c2cc(Cl)c(F)c(C(=O)NNS(=O)(=O)c3ccccc3Cl)c2)c1
> 5.00
